Data origin: BindingDB's records for patent US12065430

Target: Son of sevenless homolog 1 [564-1049]/GTPase KRas [G12C] (UniProt P01116+Q07889, G12C)
Construct: 564-1049
Sequence (P01116 whole entry G12C): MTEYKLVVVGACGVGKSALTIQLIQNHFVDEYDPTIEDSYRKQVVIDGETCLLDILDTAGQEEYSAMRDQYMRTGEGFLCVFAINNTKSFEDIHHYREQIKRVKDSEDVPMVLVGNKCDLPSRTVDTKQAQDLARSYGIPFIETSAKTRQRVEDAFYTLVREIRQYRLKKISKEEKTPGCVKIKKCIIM
Sequence (Q07889 564-1049): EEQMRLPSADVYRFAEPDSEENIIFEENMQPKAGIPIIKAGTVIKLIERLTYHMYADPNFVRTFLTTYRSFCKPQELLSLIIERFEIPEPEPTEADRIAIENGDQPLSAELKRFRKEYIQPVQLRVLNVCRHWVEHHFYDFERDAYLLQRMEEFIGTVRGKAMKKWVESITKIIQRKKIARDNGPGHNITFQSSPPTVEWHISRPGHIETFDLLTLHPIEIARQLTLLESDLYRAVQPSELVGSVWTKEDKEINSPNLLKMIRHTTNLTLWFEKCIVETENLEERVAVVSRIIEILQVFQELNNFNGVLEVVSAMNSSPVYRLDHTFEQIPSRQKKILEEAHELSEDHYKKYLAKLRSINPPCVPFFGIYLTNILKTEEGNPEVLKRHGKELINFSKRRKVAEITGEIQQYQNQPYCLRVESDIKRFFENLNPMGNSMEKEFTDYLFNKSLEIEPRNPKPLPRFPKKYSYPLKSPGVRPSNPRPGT
Assay: Evaluation of Inhibitory Activity of Compounds on KRAS G12C Nucleotide (GDP-GTP) Exchange Reaction
Description: The inhibitory activity of compounds on exchange reaction of GDP into GppNHp in Bodipy (trademark) FL-bound KRAS G12C was examined by fluorescence measurement using human recombinant KRAS G12C and SOS1 proteins.For the preparation of KRAS G12C to which Bodipy FL GDP was bound, first, […] KRAS G12C (amino acid region: 1-169) and 1 mM Bodipy FL GDP (Invitrogen, G22360) were incubated for 1 hour in a buffer (20 mM Tris-HCl (pH 7.5), 50 mM NaCl, 1 mM DTT) in ice in the presence of 2.5 mM EDTA. […]
Classification scheme (IC50): bottom (below 10 nM), middle (10 nM to below 100 nM), top (100 nM or more)

Ask | Into which category would you place `C=CC(=O)N1CC(NC(=O)c2c(C#N)nc(CNc3n[nH]c4cc(Cl)c(C(C)(C)C)cc34)n2C)C1` ?
Reply | middle

Ask | Into which category would you place `C=CC(=O)N1CC(NC(=O)c2c(Cl)nc(CNc3n[nH]c4cc(Cl)c(C(C)(C)C)cc34)n2C(C)C)C1` ?
Reply | bottom

Ask | Into which category would you place `C=CC(=O)N1C[C@H](NC(=O)c2c(F)nc(CNc3n[nH]c4cc(Cl)c(C(C)(C)C)cc34)n2C)[C@@H](F)C1` ?
Reply | middle

Ask | Into which category would you place `C=CC(=O)N1CC(NC(=O)c2c(C(F)(F)F)nc(CNc3n[nH]c4cc(Cl)c(C(C)(C)C)cc34)n2C)C1` ?
Reply | top

Ask | Into which category would you place `C=CC(=O)N1C[C@H](NC(=O)c2c(C)nc(CNc3n[nH]c4cc(Cl)c(C(C)(C)C)cc34)n2C)C2(CC2)C1` ?
Reply | top

Ask | Into which category would you place `C=CC(=O)N1CC(NC(=O)c2c(Cl)c(CNc3n[nH]c4cc(Cl)c(C(C)(C)C)cc34)nn2C)C1` ?
Reply | top

Ask | Into which category would you place `C=CC(=O)N1CC(NC(=O)c2c(Cl)nc(CNc3n[nH]c4cc(Cl)c(C(C)(C)C)cc34)n2[C@@H]2CCN(CC(F)F)[C@H]2C)C1` ?
Reply | middle

Ask | Into which category would you place `C=CC(=O)N1CC(NC(=O)c2c(Cl)nc(CNc3n[nH]c4cc(Cl)c(C(C)(C)C)cc34)n2CCCC)C1` ?
Reply | middle

Ask | Into which category would you place `C=CC(=O)N1CC(NC(=O)c2cnc(CNc3n[nH]c4cc(Cl)c(C(C)(C)C)cc34)n2C)C1` ?
Reply | middle

Ask | Into which category would you place `C=CC(=O)N1CC(NC(=O)c2c(Cl)nc(CNc3n[nH]c4cc(Cl)c(C(C)(C)C)cc34)n2C2CN(C(=O)OC(C)(C)C)C2)C1` ?
Reply | bottom

Ask | Into which category would you place `C=CC(=O)N1CCN(C(=O)c2c(C)nc(CNc3n[nH]c4cc(Cl)c(C(C)(C)C)cc34)n2C)CC1` ?
Reply | top

Ask | Into which category would you place `C=CC(=O)N1CC(NC(=O)c2c(C)nc(CNc3n[nH]c4cc(Cl)c(C(C)(C)C)cc34)n2C(C)C)C1` ?
Reply | middle

Ask | Into which category would you place `C=CC(=O)N1CC(NC(=O)c2c(Br)nc(CNc3n[nH]c4cc(Cl)c(C(C)(C)C)cc34)n2C)C1` ?
Reply | bottom

Ask | Into which category would you place `C=CC(=O)N1CC(NC(=O)c2c(Cl)nc(CNc3n[nH]c4cc(Cl)c(C(C)(C)C)cc34)n2-c2ccccn2)C1` ?
Reply | top

Ask | Into which category would you place `C=CC(=O)N1CC(NC(=O)c2c(Cl)nc(CNc3n[nH]c4cc(Cl)c(C(C)(C)C)cc34)n2C2CC=CC2)C1` ?
Reply | bottom

Ask | Into which category would you place `C=CC(=O)N1CC(NC(=O)c2c(F)nc(CNc3n[nH]c4cc(Cl)c(C(C)(C)C)cc34)n2C)C1` ?
Reply | middle

Ask | Into which category would you place C=CC(=O)N1CC(NC(=O)c2c(C(F)F)nc(CNc3n[nH]c4cc(Cl)c(C(C)(C)C)cc34)n2C2CCN(C(C)=O)C2)C1 (stereo not given) ?
Reply | bottom

Ask | Into which category would you place `C=CC(=O)N1CC[C@@H](N(C)C(=O)c2cnc(CNc3n[nH]c4cc(Cl)c(C(C)(C)C)cc34)n2C)C1` ?
Reply | top

Ask | Into which category would you place C=CC(=O)N1CC(NC(=O)c2c(Cl)nc(CNc3n[nH]c4cc(Cl)c(C(C)(C)C)cc34)n2C2CCCOC2)C1 (stereo not given) ?
Reply | bottom

Ask | Into which category would you place `C=CC(=O)N1CC(NC(=O)c2c(F)nc(CNc3n[nH]c4cc(Cl)c(C(C)(C)C)cc34)n2C(C)C)C1` ?
Reply | middle

Ask | Into which category would you place `C=CC(=O)N1CC(NC(=O)c2cnc(CNc3n[nH]c4cc(Cl)c(C)cc34)n2C)C1` ?
Reply | top

Ask | Into which category would you place `C=CC(=O)N1CC(NC(=O)c2sc(CNc3n[nH]c4cc(Cl)c(C(C)(C)C)cc34)nc2C)C1` ?
Reply | top

Ask | Into which category would you place `C=CC(=O)N1CC(NC(=O)c2c(CC)nc(CNc3n[nH]c4cc(Cl)c(C(C)(C)C)cc34)n2C)C1` ?
Reply | top

Ask | Into which category would you place `CC(C)n1c(CNc2n[nH]c3cc(Cl)c(C(C)(C)C)cc23)nc(C(F)F)c1C(=O)NC1CN(C(=O)/C=C/CN(C)C)C1` ?
Reply | middle

Ask | Into which category would you place `C=CC(=O)N1CC(NC(=O)c2c(C)nc(CNc3n[nH]c4cc(Cl)c(C(C)(C)C)cc34)n2CC(F)(F)F)C1` ?
Reply | middle

###

target: Son of sevenless homolog 1 [564-1049]/GTPase KRas [G12C] (UniProt P01116+Q07889, G12C); construct: 564-1049; assay: Evaluation of Inhibitory Activity of Compounds on KRAS G12C Nucleotide (GDP-GTP) Exchange Reaction
Consider the following compounds; for each one, report its IC50.
Give just the number in nM; leave the unit off.

Ask | Could you share which IC50 value was measured for `C=CC(=O)N1CC(NC(=O)c2c(Cl)nc(CNc3n[nH]c4cc(Cl)c(C(C)(C)C)cc34)n2[C@@H]2C[C@@H](O)[C@@H](O)C2)C1` ?
Reply | 7

Ask | Could you share which IC50 value was measured for `C=CC(=O)N1CC(NC(=O)c2c(Cl)nc(CNc3n[nH]c4cc(Cl)c(C(C)(C)C)cc34)n2C2CCCC2)C1` ?
Reply | 8

Ask | Could you share which IC50 value was measured for `C=CC(=O)N1CC(NC(=O)c2c(C(F)(F)F)nc(CNc3n[nH]c4cc(Cl)c(C(C)(C)C)cc34)n2C(C)C)C1` ?
Reply | 50

Ask | Could you share which IC50 value was measured for `C=CC(=O)N1CC(NC(=O)c2c(C)nc(CNc3n[nH]c4cc(Cl)c(C(C)(C)C)cc34)n2C2CCCC2)C1` ?
Reply | 17

Ask | Could you share which IC50 value was measured for `C=CC(=O)N1CC(NC(=O)c2c(Cl)nc(CNc3n[nH]c4cc(Cl)c(C(C)(C)C)cc34)n2[C@@H]2C[C@@H](C)N(CC(F)F)C2)C1` ?
Reply | 4

Ask | Could you share which IC50 value was measured for `C=CC(=O)N1C[C@@H](C)[C@@H](NC(=O)c2c(F)nc(CNc3n[nH]c4cc(Cl)c(C(C)(C)C)cc34)n2C)C1` ?
Reply | 36

Ask | Could you share which IC50 value was measured for `C=CC(=O)N1CC(NC(=O)c2oc(CNc3n[nH]c4cc(Cl)c(C(C)(C)C)cc34)nc2C)C1` ?
Reply | 1060

Ask | Could you share which IC50 value was measured for `C=CC(=O)N1CC(NC(=O)c2csc(CNc3n[nH]c4cc(Cl)c(C(C)(C)C)cc34)n2)C1` ?
Reply | 4260

Ask | Could you share which IC50 value was measured for `C=CC(=O)N1CC(NC(=O)c2c(Cl)nc(CNc3n[nH]c4cc(Cl)c(C(C)(C)C)cc34)n2[C@@H]2CCN(C3CC3)C2)C1` ?
Reply | 6

Ask | Could you share which IC50 value was measured for `CC#CC(=O)N1CC(NC(=O)c2c(C)nc(CNc3n[nH]c4cc(Cl)c(C(C)(C)C)cc34)n2C(C)C)C1` ?
Reply | 209

Ask | Could you share which IC50 value was measured for `C=CC(=O)N1CC(NC(=O)c2c(Cl)nc(CNc3n[nH]c4cc(Cl)c(C(C)(C)C)cc34)n2[C@@H]2CCN(CCOC)C2)C1` ?
Reply | 11

Ask | Could you share which IC50 value was measured for `C=CC(=O)N1C[C@@H](CN(C)C)[C@@H](NC(=O)c2c(C)nc(CNc3n[nH]c4cc(Cl)c(C(C)(C)C)cc34)n2C)C1` ?
Reply | 99
